- System: biotinyl-Phe-oxazolone
- Assay remarks: self-aminoacylation, catalytic enhancement (BFO) (fold over background); higher = more active; k-Seq, kA / k0A0; sequences stand for … in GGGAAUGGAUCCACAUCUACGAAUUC…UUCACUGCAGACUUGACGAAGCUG
Variants at the floor of the assay were thinned out.
// reported self-aminoacylation for each item listed
# print the numeric value only

Solved cases (2 shown):
>>> value_measured("AUUCACCUAAGUCAUCGGUUG [Fam2.2 aminoacylation ribozyme variant]")
0.716
>>> value_measured("CCACACUACAAGCGAUCGGUC [Fam1B.1 aminoacylation ribozyme variant]")
0.866

INPUT: What value of self-aminoacylation has been reported for the following sequence? AAGUUUGCUUAUAGUCUCAAG [Fam3.1 aminoacylation ribozyme variant]
OUTPUT: 1.41

INPUT: What value of self-aminoacylation has been reported for the following sequence? AUUUCCCUGGUCAUCGAGGGA [Fam2.1 aminoacylation ribozyme variant]
OUTPUT: 1.28

INPUT: What value of self-aminoacylation has been reported for the following sequence? AUUCGCCUAGGUCAGCGGGUG [Fam2.2 aminoacylation ribozyme variant]
OUTPUT: 37.8

INPUT: What value of self-aminoacylation has been reported for the following sequence? AUUACCCUGCUCAUCGAGAGA [Fam2.1 aminoacylation ribozyme variant]
OUTPUT: 0.77

###

- Test system: biotinyl-Ile-oxazolone
- Assay remarks: self-aminoacylation, catalytic enhancement (BIO) (fold over background); higher = more active; k-Seq, kA / k0A0; sequences stand for … in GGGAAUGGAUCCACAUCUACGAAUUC…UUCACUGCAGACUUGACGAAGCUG
This sample holds only a part of the variants without activity.
// reported self-aminoacylation for each item listed

Solved cases (5 shown):
>>> value_measured("AAAUUUGCUAAUACUCGCAAG [Fam3.1 aminoacylation ribozyme variant]")
1.36
>>> value_measured("CCAUACUUCAAGUAAUCGGUC [Fam1B.1 aminoacylation ribozyme variant]")
0.914
>>> value_measured("AUUCACCUAGGUCAUCAGAUG [Fam2.2 aminoacylation ribozyme variant]")
0.857
>>> value_measured("AUUACCCAGGUCAUCGAGUUA [Fam2.1 aminoacylation ribozyme variant]")
1.01
>>> value_measured("AUUACCCGGGUCAUCUAGUGA [Fam2.1 aminoacylation ribozyme variant]")
4.46

INPUT: What value of self-aminoacylation has been reported for the following sequence? CUUCCCCUGGUCAUCGAGUGA [Fam2.1 aminoacylation ribozyme variant]
OUTPUT: 3.23

INPUT: What value of self-aminoacylation has been reported for the following sequence? AAUCACCUAGGUCAUCGGGUA [Fam2.2 aminoacylation ribozyme variant]
OUTPUT: 7.76

INPUT: What value of self-aminoacylation has been reported for the following sequence? AUGUUUGCUAAUAGUCGCUAG [Fam3.1 aminoacylation ribozyme variant]
OUTPUT: 1.19

INPUT: What value of self-aminoacylation has been reported for the following sequence? AUUCCCCUGGUCAUCGCGUGA [Fam2.1 aminoacylation ribozyme variant]
OUTPUT: 12.2

###

- Test system: biotinyl-Trp-oxazolone
- Assay remarks: self-aminoacylation, catalytic enhancement (BWO) (fold over background); higher = more active; k-Seq, kA / k0A0; sequences stand for … in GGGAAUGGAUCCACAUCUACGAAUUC…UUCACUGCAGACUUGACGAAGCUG
Variants at the floor of the assay were thinned out.
Property: self-aminoacylation
# print the numeric value only

>>> value_measured("AUUACCCUGGUAAGCGAGUGA [Fam2.1 aminoacylation ribozyme variant]")
6.48

INPUT: Request: self-aminoacylation, test system biotinyl-Trp-oxazolone, entry CUACUGCCAACAAUCGGUCUG [Fam1A.1 aminoacylation ribozyme variant]
OUTPUT: 0.531

INPUT: Request: self-aminoacylation, test system biotinyl-Trp-oxazolone, entry AUUCACCCAGGUCAUCCGGUG [Fam2.2 aminoacylation ribozyme variant]
OUTPUT: 8.51

INPUT: Request: self-aminoacylation, test system biotinyl-Trp-oxazolone, entry AAGUGUGCUAUUAGUCGCAAG [Fam3.1 aminoacylation ribozyme variant]
OUTPUT: 0.997
